test system: MARK4; details: concentration: 1 μM, replicates: in singlicate; n = 1;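 also: KINOMEscan kinase panel screen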
# %Inh >= 5% gives Met, anything below gives Not met

Recorded results for 5 compounds are shown here.
{"COMPOUND": "Nc1ncc(-c2ccc3nccc(-c4ccncc4)c3c2)cc1S(=O)(=O)N1CCCCC1 [GSK1693850]", "QUALITATIVE_LABEL": "Not met"}
{"COMPOUND": "Cc1ccc(NC(=O)c2ccnc(N3CCCCC3)c2)cc1-c1ccc(C(=O)NCC2CC2)cc1 [GW775610]", "QUALITATIVE_LABEL": "Not met"}
{"COMPOUND": "CC(C)c1nc(-c2ccc(F)c(NS(=O)(=O)c3c(F)cccc3F)c2)c(-c2ccnc(Nc3ccc(N4CCOCC4)nc3)n2)s1 [GSK1804250]", "QUALITATIVE_LABEL": "Met"}
{"COMPOUND": "COC(=O)Nc1nc2ccc(Oc3ccc(NC(=O)Nc4cc(C(F)(F)F)ccc4F)cc3)cc2[nH]1.Cl [GW654607]", "QUALITATIVE_LABEL": "Not met"}
{"COMPOUND": "CCNC(=O)/C=C/c1n[nH]c2cc(Sc3ccccc3C(=O)NC)ccc12", "QUALITATIVE_LABEL": "Not met"}

[in] Is reported %Inh greater than or equal to 5% here: O=C(Nc1n[nH]c2nc(-c3ccccc3O)ccc12)C1CC1 [SB-711880]
[out] Not met

[in] Reported %Inh at or above 5%? COc1cc(Nc2ccnc3cc(-c4ccncc4)ccc23)cc(OC)c1OC.Cl [GW494610]
[out] Met

[in] Confirm if %Inh reported for the compound Fc1cc(Cl)ccc1Nc1ccnc2cc(-c3ccc(CN4CCOCC4)o3)ccc12 [GW560109] is 5% or above.
[out] Not met

[in] # bool: %Inh of CSc1ccc(NC2=C(c3ccc(Cl)cc3)C(=O)NC2=O)cc1 [SB-317658] >= 5%
[out] Met

[in] Does CNc1nccc(-c2ccc3c(N)n[nH]c3c2)n1 [GSK2206003] have a reported %Inh of at least 5%?
[out] Not met

###

%Inh listing for selected compounds.
tested on: GCN2(Kin.Dom.2,S808G); construct: gene EIF2AK4; settings: concentration: 1 μM, replicates: in singlicate; n = 1
All answers are understood in %, so give the number only.

Use these answered entries as a reference point.
{"COMPOUND": "Cn1cc(-c2ccc3c(c2)CCN3C(=O)Cc2cc(F)cc(F)c2F)c2c(N)ncnc21", "SYSTEM_UNDER_TEST": "GCN2(Kin.Dom.2,S808G)", "VALUE_OBSERVED": 40}
{"COMPOUND": "Cc1ccc(NC(=O)c2ccnc(N3CCCCC3)c2)cc1-c1ccc(C(=O)NCC2CC2)cc1", "SYSTEM_UNDER_TEST": "GCN2(Kin.Dom.2,S808G)", "VALUE_OBSERVED": 14}
{"COMPOUND": "Cc1cccc(Nc2nc(NCCN)ncc2C(N)=O)c1", "SYSTEM_UNDER_TEST": "GCN2(Kin.Dom.2,S808G)", "VALUE_OBSERVED": 41}
{"COMPOUND": "CN1CCN(Cc2ccc(NC(=O)Nc3ccc(N(C)c4ccnc(Nc5ccc(CS(C)(=O)=O)cc5)n4)cc3)cc2)CC1.Cl", "SYSTEM_UNDER_TEST": "GCN2(Kin.Dom.2,S808G)", "VALUE_OBSERVED": 17}

[in] Give a short answer stating reported %Inh for CC(C)c1nc(-c2cccc(NS(=O)(=O)c3c(F)cccc3F)c2)c(-c2ccnc(Nc3ccc(N4CCOCC4)nc3)n2)s1.Cl .
[out] 100

[in] Respond only with %Inh recorded for COc1cccc(NC(=O)NCCNc2ccnc(Nc3ccc(F)cc3)n2)c1
[out] 0

[in] Consider the compound Cc1cccc(Nc2nc(N[C@H]3CCCC[C@H]3N)ncc2C(N)=O)c1.Cl and give its recorded %Inh.
[out] 72

[in] Specify measured %Inh for Nc1cccc(-c2ccc3c(N)n[nH]c3c2)c1 .
[out] 0
